The reported measurements were obtained from patent US9062078B2.

Task for the reader: assign each of the following compounds its reported pKi.
# System: human orexin 1 receptor (Homo sapiens (Human), UniProt O43613)
# Sequence (O43613 whole entry): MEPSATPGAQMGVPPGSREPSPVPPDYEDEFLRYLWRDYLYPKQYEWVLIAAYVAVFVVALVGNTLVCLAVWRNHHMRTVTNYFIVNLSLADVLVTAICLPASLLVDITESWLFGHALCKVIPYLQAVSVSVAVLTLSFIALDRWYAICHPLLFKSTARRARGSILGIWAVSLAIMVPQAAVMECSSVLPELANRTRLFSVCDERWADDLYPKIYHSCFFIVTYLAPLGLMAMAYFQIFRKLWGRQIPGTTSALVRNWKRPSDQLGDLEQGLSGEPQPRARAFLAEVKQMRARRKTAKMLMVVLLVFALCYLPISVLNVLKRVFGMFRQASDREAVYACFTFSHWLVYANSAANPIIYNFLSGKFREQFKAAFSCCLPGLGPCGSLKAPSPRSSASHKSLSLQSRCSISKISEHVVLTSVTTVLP
# Method: Human orexin 1 receptor radioligand binding (competitive, [3H]-SB674042, CHO cell preparations)
# Run conditions: hOX1 Ki (nm)
Give bare numbers, as −log10 of the molar value.

Compound: O=C(c1cccc(F)c1-n1nccn1)N1C2CCC1C(COc1nccc(C(F)(F)F)n1)C2 (racemic)
pKi: 5.82

Value sought for every listed compound: pKi.
1. Cc1nc(C(=O)N2C3CCC2C(COc2ccccn2)C3)c(-c2ccccc2)s1 (racemic)
2. CCOc1ncc2ccccc2c1C(=O)N1C2CCC1C(COc1ccccn1)C2 (racemic)
3. O=C(c1ccccc1-n1nccn1)N1C2CCC1C(Nc1cnc(C(F)(F)F)cn1)C2 (racemic) [Example 182]
4. O=C(c1cccc(F)c1-c1ncccn1)N1C2CCC1C(COc1ccc(F)cn1)C2 (racemic)
5. CCOc1ncc(Br)cc1C(=O)N1C2CCC1C(COc1ccccn1)C2 (racemic)
6. O=C(c1c(F)cccc1-n1nccn1)N1C2CCC1C(COc1ccc(F)cn1)C2 (racemic)
7. Cc1ccc(-n2nccn2)c(C(=O)N2C3CCC2C(COc2nc4ccccc4nc2C(F)(F)F)C3)c1 (racemic)
8. O=C(c1ccccc1-n1nccn1)N1C2CCC1C(Nc1ccc(Cl)cn1)C2 (racemic)

1: 7.96; 2: 7.92; 3: 7.42; 4: 7.28; 5: 6.87; 6: 7.11; 7: 6.52; 8: 7.26
